Test: TLR3 IRF3 reporter activation blockers – cell-based, poly I:C stimulus, luciferase, 10K MLSCN set, primary screen (AID 602277)
Conditions: HEK293-TLR3 RL24 IRF3 luciferase reporter, at 10 µM, hits give high values
Examples of compounds with documented inhibition follow.

- COMPOUND: "CCOC(=O)C1=C(C)Nc2nnnn2C1c1ccc(OC)c(Br)c1 (stereo unspecified)"
  UNITS OF MEASURE: "%"
  inhibition: -12.8
- COMPOUND: "CCCCC(O)(C(NC=O)C(=O)OC)C(F)(F)F (stereo unspecified)"
  UNITS OF MEASURE: "%"
  inhibition: 16
- COMPOUND: "COc1cc(C(=O)Nc2cccc(-c3nc4cc(C)ccc4o3)c2)cc(OC)c1OC"
  UNITS OF MEASURE: "%"
  inhibition: -22.5
- COMPOUND: "CC(C)(C)NC(=O)CN(C(=O)CS(=O)CC(=O)Nc1ccc(F)cc1)c1ccc(Cl)cc1 (stereo unspecified)"
  UNITS OF MEASURE: "%"
  inhibition: 19.5
- COMPOUND: "O=C1c2ccccc2C(Nc2cccnc2)N1Cc1ccccc1Cl (stereo unspecified)"
  UNITS OF MEASURE: "%"
  inhibition: 18.3
- COMPOUND: "Cc1sc2nc(CN3CCN(S(=O)(=O)c4cccc5nonc45)CC3)[nH]c(=O)c2c1C"
  UNITS OF MEASURE: "%"
  inhibition: 1.1
- COMPOUND: "C=CCOc1nc2c(c(=O)n(C)c(=O)n2C)n1C"
  UNITS OF MEASURE: "%"
  inhibition: 34.1
- COMPOUND: "CCOC(=O)N1CCC(NC(=O)C2CCN(S(=O)(=O)c3cccc4cccnc34)CC2)CC1"
  UNITS OF MEASURE: "%"
  inhibition: 35.6
- COMPOUND: "COCCNC(=O)CCc1nc(-c2ccccc2)no1"
  UNITS OF MEASURE: "%"
  inhibition: 16.3
- COMPOUND: "COCCNC(=O)CC(NS(=O)(=O)c1ccc(NC(C)=O)cc1)C(C)C (stereo unspecified)"
  UNITS OF MEASURE: "%"
  inhibition: 25.9
- COMPOUND: "CCCC(=O)Nc1ccc2oc(-c3cccnc3)nc2c1"
  UNITS OF MEASURE: "%"
  inhibition: -96.1

---

Property: NADPH fluorescence slope; scope: individual molecules
Target: Voltage-gated potassium channel subunit beta-2 (Rattus norvegicus) (UniProt P62483)
Sequence (P62483 whole entry, looked up): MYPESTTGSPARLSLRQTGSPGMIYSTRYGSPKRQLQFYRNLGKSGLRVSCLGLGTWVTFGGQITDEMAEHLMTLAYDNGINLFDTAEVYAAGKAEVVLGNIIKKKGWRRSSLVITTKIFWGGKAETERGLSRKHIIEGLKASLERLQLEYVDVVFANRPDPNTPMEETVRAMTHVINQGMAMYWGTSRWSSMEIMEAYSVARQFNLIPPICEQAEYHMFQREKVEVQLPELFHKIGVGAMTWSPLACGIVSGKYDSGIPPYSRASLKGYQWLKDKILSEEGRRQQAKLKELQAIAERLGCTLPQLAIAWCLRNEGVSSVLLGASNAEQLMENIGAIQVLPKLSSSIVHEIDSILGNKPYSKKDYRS
Assay: enhancers of rat Kvbeta2 NADPH turnover – biochemical, NADPH fluorescence, primary screen (AID 623);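 also: fluorescence intensity change per second fitted from 20 to 320 s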
Settings: Recombinant KvBeta, NADPH fluorescence decrease slope, 10 min; at 10 µM; hits give low values
Activity calls are given as the source filed them.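 How the source made its calls: active means NADPH fluorescence slope more negative than the mean of all samples by about 3 SD, 99.7% confidence; inactive means the rest.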

- MOLECULE: "C/C=C/COC(=O)c1[nH]c2c(c1C)C(=O)CC(c1ccco1)C2 (stereo unspecified)"
  NADPH fluorescence slope: "-1.1e-06 (inactive)"
- MOLECULE: "O=C(OCn1nnc2ccccc2c1=O)c1cc2ccccc2o1"
  NADPH fluorescence slope: "-3.1e-05 (inactive)"
- MOLECULE: "CC(=O)Nc1c(O)nc(SCC(=O)Nc2nnc(CC(C)C)s2)[nH]c1=O"
  NADPH fluorescence slope: "1.8e-05 (inactive)"
- MOLECULE: "O=C(NC1(C(=O)NC2CCCCC2)CCCCC1)c1ccc2c(c1)OCO2"
  NADPH fluorescence slope: "-3.1e-05 (inactive)"
- MOLECULE: "O=C(CN1CCN(c2nc(-c3ccc(F)cc3)cs2)CC1)NCc1ccc2c(c1)OCO2"
  NADPH fluorescence slope: "-2.2e-05 (inactive)"
- MOLECULE: "C=CCn1c(-c2ccccc2)c[nH]c1=S"
  NADPH fluorescence slope: "-4.2e-05 (inactive)"
